Data provenance is BindingDB's records for doi:10.1016/j.ejmech.2021.113317.

Test: Reversal of BCRP-mediated multidrug resistance in human KBV cells assessed as mitoxantrone IC50 at 5 uM after 72 hrs in presence of mitoxantrone by MTT assay (Rvb = 1186.50 +/- 29.24 nM)
READOUT: pIC50
API: returns pIC50 as number; meaning -log10 of concentration in mol/L.

{"COMPOUND STRUCTURE STRING": "CSCC[C@H](NC(=O)OC(C)(C)C)C(=O)O[C@H]1CC[C@]2(C)[C@H]3C[C@@H](O)[C@@H]4[C@@H]([C@]5(C)CC[C@H](C(C)(C)O)O5)CC[C@@]4(C)[C@]3(C)CC[C@H]2C1(C)C", "ASSAY RESULT": 6.07}

Give its pIC50 value. Item: CSCC[C@H](NC(=O)OC(C)(C)C)C(=O)O[C@H]1CC[C@]2(C)[C@H]3C[C@@H](O)[C@@H]4[C@@H]([C@]5(C)CC[C@@H](C(C)(C)O)O5)CC[C@@]4(C)[C@]3(C)CC[C@H]2C1(C)C
5.84

* * *

Experiment: Reversal of BCRP-mediated multidrug resistance in human KBV cells assessed as mitoxantrone IC50 at 10 uM after 72 hrs in presence of mitoxantrone by MTT assay (Rvb = 1186.50 +/- 29.24 nM)
# key: entry, value: pIC50
API: returns pIC50 as number; meaning -log10 of concentration in mol/L.

{"COMPOUND STRUCTURE STRING": "CSCC[C@H](NC(=O)OC(C)(C)C)C(=O)O[C@H]1CC[C@]2(C)[C@H]3C[C@@H](O)[C@@H]4[C@@H]([C@]5(C)CC[C@H](C(C)(C)O)O5)CC[C@@]4(C)[C@]3(C)CC[C@H]2C1(C)C", "ASSAY RESULT": 6.13}

Give its pIC50 value. Item: CSCC[C@H](NC(=O)OC(C)(C)C)C(=O)O[C@H]1CC[C@]2(C)[C@H]3C[C@@H](O)[C@@H]4[C@@H]([C@]5(C)CC[C@@H](C(C)(C)O)O5)CC[C@@]4(C)[C@]3(C)CC[C@H]2C1(C)C
6.00
